- assayed-target: α-synuclein (recombinant fibrils) (Homo sapiens)
- Construct: recombinant human α-syn fibrils (pET-3a construct)
- protocol-description: radioligand saturation binding (filtration) on recombinant fibrils
readout: Kd

| smiles-str | value |
| --- | --- |
| COc1ccc(/C=C/c2cn(-c3ccccc3)nn2)cc1 | 35 nM |
